System: Plasmodium berghei
Test description: Luciferase/luciferin-expressing antifolate-resistant parasites were used to infect a culture of HepG2 cells that were pre-incubated with compounds. Infected hepatocytes emit light due to the luciferase reaction. Assay results are presented as the percent inhibition of light emission compared to control. […]
Assay type: functional
Particulars: sporozoite, HEPG2TOX_HILL_SLOPE 2, HEPG2TOX_R_SQUARED 0.799, PBLUC_HILL_SLOPE 14.5, PBLUC_R_SQUARED 0.715, read-out: LUCIFERASE INFECTION ASSAY - IC50

Structure notation	Test system	IC50 / µM
Cc1nc(NC(=O)CCc2c[nH]c3ccccc23)sc1-c1ccccn1	Plasmodium berghei	3.02

----------
Tested on: Plasmodium berghei
Test description: Luciferase/luciferin-expressing antifolate-resistant parasites were used to infect a culture of HepG2 cells that were pre-incubated with compounds. Infected hepatocytes emit light due to the luciferase reaction. Assay results are presented as the percent inhibition of light emission compared to control. […]
Type: functional
Particulars: sporozoite, PBLUC_HILL_SLOPE 3.6, PBLUC_R_SQUARED 0.261, read-out: LUCIFERASE INFECTION ASSAY - IC50
Observation type: IC50 (µM)

Compound	Test system	Unit spec	Number
CC(NC(=O)c1ccccc1NC(=O)CN1CCN(C/C=C/c2ccccc2)CC1)c1ccccc1 (stereo unspecified)	Plasmodium berghei	µM	4.62

----------
Tested on: Plasmodium berghei
Test description: Luciferase/luciferin-expressing antifolate-resistant parasites were used to infect a culture of HepG2 cells that were pre-incubated with compounds. Infected hepatocytes emit light due to the luciferase reaction. Assay results are presented as the percent inhibition of light emission compared to control. […]
Format: functional
Particulars: sporozoite, FFLUC_HILL_SLOPE 10.4, FFLUC_R_SQUARED 0.533, read-out: LUCIFERASE INFECTION ASSAY - IC50
Observation type: IC50

Structure notation	Observation type	Result
O=C1C=CC(=O)N1c1cc(Cl)ccc1Cl	IC50	> 13.6 µM

----------
System: Plasmodium berghei
Test description: Luciferase/luciferin-expressing antifolate-resistant parasites were used to infect a culture of HepG2 cells that were pre-incubated with compounds. Infected hepatocytes emit light due to the luciferase reaction. Assay results are presented as the percent inhibition of light emission compared to control. […]
Format: functional
Particulars: sporozoite, PBLUC_HILL_SLOPE 17.3, PBLUC_R_SQUARED 0.0145, read-out: LUCIFERASE INFECTION ASSAY - IC50
pIC50: −log10 of the molar value.

Compound	pIC50
c1ccc(C(Nc2ncnc3sccc23)c2ccco2)cc1 (stereo unspecified)	5.05

----------
Tested on: Plasmodium berghei
Test description: Luciferase/luciferin-expressing antifolate-resistant parasites were used to infect a culture of HepG2 cells that were pre-incubated with compounds. Infected hepatocytes emit light due to the luciferase reaction. Assay results are presented as the percent inhibition of light emission compared to control. […]
Format: functional
Particulars: sporozoite, HEPG2TOX_HILL_SLOPE 3.23, HEPG2TOX_R_SQUARED 0.98, PBLUC_HILL_SLOPE 2.82, PBLUC_R_SQUARED 0.72, read-out: LUCIFERASE INFECTION ASSAY - IC50

Structure notation	IC50 / µM
CC(C)(C)c1ccc(-c2ccc(OCCCc3ccccn3)nc2)cc1	6.22

----------
System: Plasmodium berghei
Test description: Luciferase/luciferin-expressing antifolate-resistant parasites were used to infect a culture of HepG2 cells that were pre-incubated with compounds. Infected hepatocytes emit light due to the luciferase reaction. Assay results are presented as the percent inhibition of light emission compared to control. […]
Type: functional
Particulars: sporozoite, read-out: LUCIFERASE INFECTION ASSAY - IC90

Compound	IC90
COC(=O)c1cc(C(=O)OCC(=O)NCCC2=CCCCC2)cc([N+](=O)[O-])c1	> 10 µM
Oc1cccc(-c2cnc3cnc(-c4ccccc4)cn23)c1	> 11.5 µM
CN(C)CCNC(=O)c1ccc(-c2cn3c(-c4ccc(Cl)cc4)cnc3cn2)cc1	3.79 µM
COc1ccc(CNC(N)=O)cc1	> 18.3 µM
OCCN1N=C2c3cc(Cl)ccc3SCC2C1c1ccc(Cl)cc1 (stereo unspecified)	> 8.7 µM
O=C(Nc1cccc(S(=O)(=O)NC2=NCCC2)c1)c1ccc2nccnc2c1	> 10 µM
